- target: human TLR7 (wild type sequence) (Homo sapiens, UniProt Q9NYK1)
- Construct: expressed in transfected cells; host or cells: HEK293
- Sequence (Q9NYK1 27-1049): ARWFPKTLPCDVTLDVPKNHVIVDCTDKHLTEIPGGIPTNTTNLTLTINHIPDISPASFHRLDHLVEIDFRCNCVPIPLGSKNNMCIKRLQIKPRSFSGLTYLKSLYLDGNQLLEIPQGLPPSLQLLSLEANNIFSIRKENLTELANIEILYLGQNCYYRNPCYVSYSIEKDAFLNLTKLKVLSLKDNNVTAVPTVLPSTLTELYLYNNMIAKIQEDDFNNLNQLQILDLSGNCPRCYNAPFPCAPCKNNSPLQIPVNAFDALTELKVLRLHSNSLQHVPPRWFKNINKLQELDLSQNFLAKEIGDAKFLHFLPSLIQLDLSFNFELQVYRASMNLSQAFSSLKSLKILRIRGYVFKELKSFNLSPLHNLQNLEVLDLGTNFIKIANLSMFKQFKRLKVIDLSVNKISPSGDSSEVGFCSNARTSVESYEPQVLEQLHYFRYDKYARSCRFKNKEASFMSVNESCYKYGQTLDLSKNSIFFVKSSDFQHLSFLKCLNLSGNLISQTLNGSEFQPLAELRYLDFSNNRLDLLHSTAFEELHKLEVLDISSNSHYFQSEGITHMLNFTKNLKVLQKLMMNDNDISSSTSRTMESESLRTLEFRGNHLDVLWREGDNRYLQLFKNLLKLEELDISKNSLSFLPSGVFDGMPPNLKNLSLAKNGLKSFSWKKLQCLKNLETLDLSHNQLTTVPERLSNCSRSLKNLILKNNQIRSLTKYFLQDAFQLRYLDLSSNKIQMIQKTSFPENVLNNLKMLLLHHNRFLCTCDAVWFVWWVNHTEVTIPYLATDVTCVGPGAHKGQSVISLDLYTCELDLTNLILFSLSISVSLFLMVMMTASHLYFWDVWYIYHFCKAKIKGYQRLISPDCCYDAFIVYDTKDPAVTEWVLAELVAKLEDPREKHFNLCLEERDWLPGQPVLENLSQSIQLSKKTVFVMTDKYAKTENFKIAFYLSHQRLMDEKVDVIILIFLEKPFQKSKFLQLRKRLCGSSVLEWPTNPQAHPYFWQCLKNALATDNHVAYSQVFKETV
- assay method text: TLR7 cellular NFκB-luc reporter assay, wild type TLR7
- Assay type: cell-based
- Design: unit not given here
- measurement setup: lowest effective concentration, wild type TLR7
Exam item: assign Y to entries whose TLR7-wt_LEC is below 0.9 and N to entries at or above 0.9. Note that a value of exactly 0.9 receives N.

Reference set, count: 3
{"molecule": "CCCCNc1nc(N)ncc1OCCCC(=O)OC [Compound 220]", "label value": "N"}
{"molecule": "CCCCNc1nc(N)ncc1OCCNC(=O)OCC [Compound 232]", "label value": "N"}
{"molecule": "CCC[C@@H](CCO)Nc1nc(N)ncc1OCc1cn(-c2ccccc2)nn1 [Compound 285]", "label value": "Y"}

Shifting focus to the molecule that follows.
Would you kindly verify if TLR7-wt_LEC of CCCC[C@@H](CO)Nc1nc(N)ncc1OCc1ccc2ccccc2n1 [Compound 198] is strictly less than 0.9?
Y

* * *

- target: human TLR8 (wild type sequence) (Homo sapiens)
- Construct: expressed in transfected cells; host or cells: HEK293
- Sequence (Q9NR97 27-1041): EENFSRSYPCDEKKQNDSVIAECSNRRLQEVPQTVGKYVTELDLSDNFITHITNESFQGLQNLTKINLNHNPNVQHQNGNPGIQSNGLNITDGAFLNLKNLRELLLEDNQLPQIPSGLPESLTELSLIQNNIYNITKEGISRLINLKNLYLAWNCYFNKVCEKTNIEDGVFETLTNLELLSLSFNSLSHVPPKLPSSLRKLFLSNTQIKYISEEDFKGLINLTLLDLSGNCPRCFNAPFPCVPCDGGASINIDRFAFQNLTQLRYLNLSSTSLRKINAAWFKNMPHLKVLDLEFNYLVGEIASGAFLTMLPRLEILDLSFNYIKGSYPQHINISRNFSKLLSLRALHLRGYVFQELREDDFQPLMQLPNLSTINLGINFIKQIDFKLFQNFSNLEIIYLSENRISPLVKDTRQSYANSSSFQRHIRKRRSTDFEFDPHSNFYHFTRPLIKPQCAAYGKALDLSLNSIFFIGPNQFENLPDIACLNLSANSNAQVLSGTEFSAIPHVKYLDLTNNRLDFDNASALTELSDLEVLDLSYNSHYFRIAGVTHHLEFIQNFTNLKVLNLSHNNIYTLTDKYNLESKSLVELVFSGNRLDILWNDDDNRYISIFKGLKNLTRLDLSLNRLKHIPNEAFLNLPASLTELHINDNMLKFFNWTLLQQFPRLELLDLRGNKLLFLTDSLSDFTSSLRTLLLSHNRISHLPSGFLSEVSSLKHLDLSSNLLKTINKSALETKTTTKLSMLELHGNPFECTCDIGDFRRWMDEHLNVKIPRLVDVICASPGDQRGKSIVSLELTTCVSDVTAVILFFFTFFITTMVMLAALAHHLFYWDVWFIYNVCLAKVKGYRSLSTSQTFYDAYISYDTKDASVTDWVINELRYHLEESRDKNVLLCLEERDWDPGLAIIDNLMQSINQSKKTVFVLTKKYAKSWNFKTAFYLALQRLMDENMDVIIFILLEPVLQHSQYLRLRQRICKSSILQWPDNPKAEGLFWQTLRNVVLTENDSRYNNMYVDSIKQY
- assay method text: TLR8 cellular NFκB-luc reporter assay, wild type TLR8
- Format: cell-based
- Set-up: unit not given here
- measurement setup: lowest effective concentration
- Protocol: The ability of compounds to activate human TLR7 and/or TLR8 was assessed in a cellular reporter assay using HEK293 cells transiently transfected with a TLR7 or TLR8 expression vector and NFκB-luc reporter construct. In one instance the TLR expression construct expresses the respective wild type sequence or a mutant sequence comprising a deletion in the second leucine-rich repeat of the TLR. Briefly, HEK293 cells were grown in culture medium (DMEM supplemented with 10% FCS and 2 mM Glutamine). […]
measure: TLR8-wt_LEC
Just the number, please.

For orientation, consider the following solved cases.
{"compound": "CCC[C@H](C)Nc1nc(N)ncc1OCc1nccc2ccccc12 [Compound 212]", "TLR8-wt_LEC": 0.005}
{"compound": "CCC[C@@H](CO)Nc1nc(N)ncc1OCCCc1ccc2c(c1)OCO2 [Compound 204]", "TLR8-wt_LEC": 0.493}
{"compound": "CCC[C@@H](CO)Nc1nc(N)ncc1OCCOC [Compound 196]", "TLR8-wt_LEC": 0.687}
{"compound": "CCC[C@@H](CO)Nc1nc(N)ncc1OCCCc1ccc(OC)cc1 [Compound 200]", "TLR8-wt_LEC": 0.200}

// moving on: another record for TLR8-wt_LEC
The reported TLR8-wt_LEC of the compound CCCC[C@@H](CO)Nc1nc(N)ncc1OCc1cccc(C)n1 [Compound 203] was 0.054

* * *

- System: HCV replicon in Huh-7 luc/neo cells
- assay method text: Suppression of HCV replicon replication by conditioned media from compound-treated PBMC
- Format: cell-based, HCV type 1 b
- measurement setup: Hepatitis C virus; conditioned media from compound-treated PBMC on Huh-7 luc/neo replicon cells (compounds 74 onward); read-out: PBMC HUH-7 EC50
measure: log10 of EC50 (log10 of the value in nM)
The common logarithm of EC50 in nM is what is listed.

Below, each entry is followed by its recorded log10 of EC50 result.
{"compound": "CCCCNc1nc(N)ncc1OCc1cc(OC2CCCC2)c(OC)cn1", "target": "HCV replicon in Huh-7 luc/neo cells", "log10 of EC50": 1.93}
{"compound": "CCCCNc1nc(N)ncc1OCCOc1ccc(C(F)(F)F)cc1", "target": "HCV replicon in Huh-7 luc/neo cells", "log10 of EC50": 3.50}
{"compound": "CCC[C@@H](CCO)Nc1nc(N)ncc1OCc1ncc(C)c(OC)c1C", "target": "HCV replicon in Huh-7 luc/neo cells", "log10 of EC50": 1.34}
{"compound": "CCCCNc1nc(N)ncc1OCCCc1ccc(OC)c(OC)c1OC", "target": "HCV replicon in Huh-7 luc/neo cells", "log10 of EC50": 2.89}

Attention now shifts to the item below.
log10 of EC50 recorded for this compound, CCCC(C)Nc1nc(N)nc(C)c1OCc1ccccc1 (centres unmarked) , is 4.07
